src = paper PMC10692396

Tested on: HUVEC
Assay: VEGF-stimulated cell viability
Assay type: cell-based
Conditions: Homo sapiens, 72 h, read-out: IC50 HUVEC cell viability
measurement-label: pIC50
Give bare numbers, as −log10 of the molar value.

Data request: Quick one: give measured pIC50 for Cc1cc(NC(=O)c2cccc3cc(-c4cccc5[nH]nc(N)c45)ccc23)ccc1F [SYHA1813]
Data returned: 7.89

* * *

Assay: Pharmacokinetics and brain distribution
Format: in vivo, CD-1 mice
Conditions: male, CD-1, mouse, plasma, po, 10 mg/kg
measurement-label: Cmax (ng/mL)
One number for each entry, in ng/mL.

Data request: Quick one: give measured Cmax for `Cc1cc(NC(=O)c2cccc3cc(-c4cccc5[nH]nc(N)c45)ccc23)ccc1F`
Data returned: 1420

* * *

Target: c-Kit (Homo sapiens, UniProt P10721)
Sequence (P10721 26-976): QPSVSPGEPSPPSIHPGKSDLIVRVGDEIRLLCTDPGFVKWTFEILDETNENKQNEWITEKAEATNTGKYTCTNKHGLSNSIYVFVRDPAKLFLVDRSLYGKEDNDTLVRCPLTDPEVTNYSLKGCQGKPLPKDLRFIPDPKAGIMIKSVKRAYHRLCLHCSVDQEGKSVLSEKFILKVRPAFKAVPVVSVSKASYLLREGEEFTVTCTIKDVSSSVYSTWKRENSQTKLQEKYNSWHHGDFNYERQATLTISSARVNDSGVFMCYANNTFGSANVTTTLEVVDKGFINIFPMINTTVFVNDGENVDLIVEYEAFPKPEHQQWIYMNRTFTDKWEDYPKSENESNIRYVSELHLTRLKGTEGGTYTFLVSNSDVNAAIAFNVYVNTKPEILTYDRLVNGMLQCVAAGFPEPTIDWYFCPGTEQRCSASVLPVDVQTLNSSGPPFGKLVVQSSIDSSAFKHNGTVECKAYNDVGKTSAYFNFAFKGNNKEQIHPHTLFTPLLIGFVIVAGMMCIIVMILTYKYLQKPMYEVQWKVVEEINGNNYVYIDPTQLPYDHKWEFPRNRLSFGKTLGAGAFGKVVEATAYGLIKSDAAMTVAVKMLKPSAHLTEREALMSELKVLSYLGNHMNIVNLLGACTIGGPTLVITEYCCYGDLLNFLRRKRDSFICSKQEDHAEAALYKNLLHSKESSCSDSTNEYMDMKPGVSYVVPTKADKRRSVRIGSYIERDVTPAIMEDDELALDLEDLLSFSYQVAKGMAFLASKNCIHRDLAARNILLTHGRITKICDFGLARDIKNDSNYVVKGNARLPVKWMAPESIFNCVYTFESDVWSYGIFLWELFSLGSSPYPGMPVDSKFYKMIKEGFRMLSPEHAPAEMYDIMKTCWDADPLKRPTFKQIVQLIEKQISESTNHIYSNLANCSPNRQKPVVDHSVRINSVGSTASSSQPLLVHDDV
measurement-label: IC50 (nM)
Answers are plain numbers, in nM.

Data request: Quick one: give measured IC50 for Cc1cc(NC(=O)c2cccc3cc(-c4cccc5[nH]nc(N)c45)ccc23)ccc1F [SYHA1813]
Data returned: 162

* * *

Target: PDGFRα (V561D) (Homo sapiens, UniProt P16234, V561D)
Sequence (P16234 24-1089 V561D): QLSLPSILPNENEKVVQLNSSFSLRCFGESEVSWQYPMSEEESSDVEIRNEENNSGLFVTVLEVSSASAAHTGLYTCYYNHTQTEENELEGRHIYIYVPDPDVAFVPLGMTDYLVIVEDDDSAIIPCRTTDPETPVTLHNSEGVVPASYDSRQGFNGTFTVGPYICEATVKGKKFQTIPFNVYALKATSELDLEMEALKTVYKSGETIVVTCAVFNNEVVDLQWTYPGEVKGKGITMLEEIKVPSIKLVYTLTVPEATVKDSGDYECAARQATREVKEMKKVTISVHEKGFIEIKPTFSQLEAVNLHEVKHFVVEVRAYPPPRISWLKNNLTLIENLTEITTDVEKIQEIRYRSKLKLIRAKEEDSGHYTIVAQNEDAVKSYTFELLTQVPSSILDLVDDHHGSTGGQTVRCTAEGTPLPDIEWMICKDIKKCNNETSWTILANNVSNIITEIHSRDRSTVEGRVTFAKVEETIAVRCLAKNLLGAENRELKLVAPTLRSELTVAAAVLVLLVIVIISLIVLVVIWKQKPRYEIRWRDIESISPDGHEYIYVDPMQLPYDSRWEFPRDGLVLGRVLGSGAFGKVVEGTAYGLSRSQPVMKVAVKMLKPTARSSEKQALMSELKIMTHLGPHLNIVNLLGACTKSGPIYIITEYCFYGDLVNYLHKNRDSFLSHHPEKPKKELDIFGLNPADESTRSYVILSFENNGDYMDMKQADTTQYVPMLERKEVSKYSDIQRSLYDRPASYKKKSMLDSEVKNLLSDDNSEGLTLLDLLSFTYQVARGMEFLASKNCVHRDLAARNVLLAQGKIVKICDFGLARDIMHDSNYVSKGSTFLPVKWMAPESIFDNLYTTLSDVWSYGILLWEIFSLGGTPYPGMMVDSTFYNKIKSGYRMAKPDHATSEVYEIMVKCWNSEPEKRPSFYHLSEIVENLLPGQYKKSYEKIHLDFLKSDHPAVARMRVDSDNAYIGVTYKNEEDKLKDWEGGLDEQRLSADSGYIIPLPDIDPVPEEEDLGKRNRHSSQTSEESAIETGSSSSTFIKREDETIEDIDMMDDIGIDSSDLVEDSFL
Experiment: ELISA kinase assay
measurement-label: IC50 (nM)
Numbers only, in nM.

Data request: Quick one: give measured IC50 for `Cc1cc(NC(=O)c2cccc3cc(-c4cccc5[nH]nc(N)c45)ccc23)ccc1F`
Data returned: 2.4

* * *

Molecular target: c-Kit (D816H) (Homo sapiens, UniProt P10721, D816H)
Sequence (P10721 26-976 D816H): as the sequence (P10721 26-976) above, with D791H counted along it
Assay: ELISA kinase assay
measurement-label: pIC50
Numbers only, as −log10 of the molar value.

Data request: Provide c-Kit (D816H) (Homo sapiens, UniProt P10721, D816H) pIC50 reading for `Cc1cc(NC(=O)c2cccc3cc(-c4cccc5[nH]nc(N)c45)ccc23)ccc1F` .
Data returned: 6.87
